Observable: melting point

>  <Compound>
CN1C(=O)CC[C@]2(C)c3ccc(Sc4cnccn4)cc3CC[C@@H]12

>  <Observable>
melting point

>  <Result>
94 to 95 °C

$$$$
>  <Compound>
CC(O)C1CCC2C3CCC4=CC(=O)CCC4(C)C3CCC12C (stereo not given)

>  <Observable>
melting point

>  <Result>
163 to 166 °C

$$$$
>  <Compound>
N#Cc1cc(N2CCC(c3cc(Cl)cc(Cl)c3)(C(F)(F)F)C2)ccc1F (stereo not given)

>  <Observable>
melting point

>  <Result>
184 to 186 °C

$$$$
>  <Compound>
FC(F)(F)Oc1ccc(Nc2cc(-c3ccccc3)ncn2)cc1

>  <Observable>
melting point

>  <Result>
245 to 247 °C

$$$$
>  <Compound>
CCCc1nc2c(N)nc3cc(OCCC4CCN(C(=O)OC(C)(C)C)CC4)ccc3c2n1CC(C)C

>  <Observable>
melting point

>  <Result>
196 to 200 °C

$$$$
>  <Compound>
Cc1cc(Cl)nc(N(C=O)c2ccccc2)n1

>  <Observable>
melting point

>  <Result>
150 to 152 °C

$$$$
>  <Compound>
CCCCCCCCC(OC(C)=O)C1=CC(=O)OC1O (stereo not given)

>  <Observable>
melting point

>  <Result>
54 to 55 °C

$$$$
>  <Compound>
CCOC(=O)C1=C(C)NN=C(C(=O)OC)C1c1cccc([N+](=O)[O-])c1 (stereo not given)

>  <Observable>
melting point

>  <Result>
176 °C

$$$$
>  <Compound>
Clc1cccc(Nc2n[nH]c3ncnc(NCc4ccccc4)c23)c1

>  <Observable>
melting point

>  <Result>
216 to 218 °C

$$$$
>  <Compound>
O=C(Nc1cccc(S(=O)(=O)NCC(F)(F)F)c1)c1cnn2c(C(F)(F)F)cc(-c3ccc(C(F)(F)F)cc3)nc12

>  <Observable>
melting point

>  <Result>
259 °C

$$$$

---

# maps each entry to its melting point

>  <Molecule>
Nc1nc(N)c2c(ccc3[nH]c4c(c32)CCCC4)n1

>  <melting point>
300 to 303 °C

$$$$
>  <Molecule>
CCC(=O)N(CC)c1cccc(-c2ccnc3c(C(=O)c4ccccc4)cnn23)c1

>  <melting point>
194 to 195 °C

$$$$
>  <Molecule>
Nc1nc2c(ncn2C2C=CC(CO)C2)c(=S)[nH]1 (stereo not given)

>  <melting point>
> 250 °C

$$$$
>  <Molecule>
Cc1[nH]cc2c(=O)n(-c3ccc(F)cc3)nc-2c1-c1ccccc1

>  <melting point>
303 to 317 °C

$$$$
>  <Molecule>
COC(=O)c1ccc2c(c1)S(=O)(=O)c1ccccc1NC2=O

>  <melting point>
300 to 302 °C

$$$$

---

# melting point listing for each entry below

>  <Compound>
O=c1c2cc(O)ccc2nc(C(S)c2ncnc3[nH]cnc23)n1-c1ccccc1Cl (stereo not given)

>  <melting point>
186 to 214 °C

$$$$
>  <Compound>
Cc1ccc(C2=NCCc3c(Cl)cccc32)cc1

>  <melting point>
82.7 to 83.4 °C

$$$$
>  <Compound>
CCCCCC12CCC(C(=O)O)(CC1)CC2

>  <melting point>
160 °C

$$$$
>  <Compound>
CNc1nc(-c2cccc(NC(=O)c3ccccn3)c2)c2cc(OC)c(OC)cc2n1

>  <melting point>
175 to 177 °C

$$$$
>  <Compound>
CCCCOc1cc(CCS(=O)(=O)NC(=O)OC(C)C)n(Cc2ccc(Cl)cc2Cl)n1

>  <melting point>
120 to 121 °C

$$$$
